System: Mice
Test: Acute toxicity, mice, i.p.
Assignment: determine reported Toxicity (acute) for the given molecules.
// keep it numeric: no unit symbol after the value

Q. Identify measured Toxicity (acute) corresponding to CCC1(O)CC(OC2CC(N(C)C)C(OC3CC(O)C(OC4CCC(=O)C(C)O4)C(C)O3)C(C)O2)c2c(cc3c(c2O)C(=O)c2c(O)cccc2C3=O)C1C(=O)OC (stereo not shown) [Aclacinomycin A, reference compound]
A. 22.6

Q. Identify measured Toxicity (acute) corresponding to CCC1(O)CC(OC2CC(N(C)C)C(OC3CC4OC5CC(=O)C(C)OC5OC4C(C)O3)C(C)O2)c2c(cc3c(c2O)C(=O)c2c(O)cc(O)cc2C3=O)C1C(=O)OC (stereo not shown) [2-Hydroxyaclacinomycin B, 2-hydroxyaclacinomycin B]
A. 50.0

Q. Identify measured Toxicity (acute) corresponding to CCC1(O)CC(OC2CC(N(C)C)C(OC3CC(O)C(OC4CCC(=O)C(C)O4)C(C)O3)C(C)O2)c2c(cc3c(c2O)C(=O)c2c(O)cc(O)cc2C3=O)C1C(=O)OC (stereo not shown) [2-Hydroxyaclacinomycin A]
A. 50.0

Q. Identify measured Toxicity (acute) corresponding to CCC1(O)CC(OC2CC(N(C)C)C(OC3CC(O)C(OC4CCC(O)C(C)O4)C(C)O3)C(C)O2)c2c(cc3c(c2O)C(=O)c2c(O)cc(O)cc2C3=O)C1C(=O)OC (stereo not shown) [2-Hydroxyaclacinomycin N, 2-hydroxyaclacinomycin N]
A. 45.7
